Target: human Peroxisome Proliferator-activated Receptor alpha (PPARa), PPARA (gene 5465)
Experiment: ATG_PPARa_TRANS: Attagene TRANS-FACTORIAL HepG2 Assay for human Peroxisome Proliferator-activated Receptor alpha (PPARa) (AID 2283001)
Results filed as inconclusive are left out. The source made the active and inactive calls. Rule for the calls: active = hit-call score of the fitted dose curve at least 0.9, where 1 is the maximum; inconclusive = response in the unintended direction; inactive = score below 0.9.

[
  {
    "molecule": "Oc1ccc2ccccc2c1N=Nc1ccccc1",
    "outcome": "inactive"
  },
  {
    "molecule": "C=CCc1ccc(O)c(OC)c1",
    "outcome": "inactive"
  },
  {
    "molecule": "Cc1ccc2ncccc2c1",
    "outcome": "inactive"
  }
]

###

Read-out: Intercellular Adhesion Molecule 1 (ICAM1), ICAM1 (gene 3383)
Assay: BSK_KF3CT_ICAM1: BioMAP Diversity Plus: KF3CT Assay for Intercellular Adhesion Molecule 1 (ICAM1) Biomarker Activity (AID 2283067)
Conditions: primary human keratinocytes with fibroblasts; actives raise or lower the signal
Calls of active or inactive are those of the source. Rule for the calls: active = hit-call score of the fitted dose curve at least 0.9, where 1 is the maximum; inactive = score below 0.9.
Please reply with one of these outcomes: YES = active, NO = inactive

Request: What did the test return for COc1ccc2c(c1)c(CC(=O)O)c(C)n2C(=O)c1ccc(Cl)cc1 ?
Response: NO

Request: Next record, please: COc1cc(S(=O)(=O)O)c(C)cc1N=Nc1c(O)ccc2cc(S(=O)(=O)O)ccc12
Response: NO

Request: Same read-out for O=C(OCCCCCOC(=O)c1ccccc1)c1ccccc1 ?
Response: NO

Request: Now the molecule CCCCC(CC)COC(=O)CC(C(=O)OCC(CC)CCCC)S(=O)(=O)O (stereo not drawn)
Response: YES

Request: Proceed to CN1CCN(Cc2cc(-c3ccc4[nH]c(=O)oc4c3)co2)[C@@H](c2ccc(F)cc2)C1
Response: NO

Request: Query CC1(C)CC(N=C=O)CC(C)(CN=C=O)C1 (stereo not drawn) next
Response: NO

Request: Another molecule: Cc1ccc(C)c(C)c1
Response: NO

Request: Let us now turn to O=C(O)CCCCC(=O)O
Response: NO

###

Experiment: Tanguay_ZF_120hpf_CFIN_legacy: (Legacy) Oregon State University Tanguay Lab 120 Hour Post-fertilization zebrafish Assay for Caudal Fin Malformation (AID 2283649)
Results filed as inconclusive are left out. Activity calls are given as the source filed them. The calls were made as follows: active = hit-call score of the fitted dose curve at least 0.9, where 1 is the maximum; inconclusive = response in the unintended direction; inactive = score below 0.9.
Use one of these outcomes when replying: y (active), n (inactive)

[
  {
    "molecule": "Cc1c(C(=O)O)c(O)cc2c1C(=O)c1c(O)c([C@@H]3O[C@H](CO)[C@@H](O)[C@H](O)[C@H]3O)c(O)c(O)c1C2=O",
    "class_label": "n"
  },
  {
    "molecule": "Cc1cccc([N+](=O)[O-])c1C",
    "class_label": "n"
  },
  {
    "molecule": "O=C(O)CCCCC(=O)O",
    "class_label": "n"
  },
  {
    "molecule": "COc1ccc(C)cc1N",
    "class_label": "n"
  },
  {
    "molecule": "CCOC(=O)C(C)(C)Oc1ccc(Cl)cc1",
    "class_label": "y"
  }
]

Request: // return assay outcome for CCCCCCCCCCCCCCCC
Response: n

Request: Next: CCOC(=O)CCC(=O)OCC
Response: n

Request: Consider next the molecule Cc1nc(-c2ccc3c(c2)CCN(CCC2CCC(NC(=O)/C=C/c4ccc(F)cc4)CC2)CC3)no1 (stereo not given) in the same way.
Response: n

Request: Same again, this time with Cc1ccc(C)c(O)c1C
Response: n

Request: How about this molecule: CCCCOC(=O)CCCCCCCCC(=O)OCCCC
Response: n

###

Biological target: Estrogen receptor (Homo sapiens) (UniProt P03372)
Sequence (P03372 whole entry, looked up): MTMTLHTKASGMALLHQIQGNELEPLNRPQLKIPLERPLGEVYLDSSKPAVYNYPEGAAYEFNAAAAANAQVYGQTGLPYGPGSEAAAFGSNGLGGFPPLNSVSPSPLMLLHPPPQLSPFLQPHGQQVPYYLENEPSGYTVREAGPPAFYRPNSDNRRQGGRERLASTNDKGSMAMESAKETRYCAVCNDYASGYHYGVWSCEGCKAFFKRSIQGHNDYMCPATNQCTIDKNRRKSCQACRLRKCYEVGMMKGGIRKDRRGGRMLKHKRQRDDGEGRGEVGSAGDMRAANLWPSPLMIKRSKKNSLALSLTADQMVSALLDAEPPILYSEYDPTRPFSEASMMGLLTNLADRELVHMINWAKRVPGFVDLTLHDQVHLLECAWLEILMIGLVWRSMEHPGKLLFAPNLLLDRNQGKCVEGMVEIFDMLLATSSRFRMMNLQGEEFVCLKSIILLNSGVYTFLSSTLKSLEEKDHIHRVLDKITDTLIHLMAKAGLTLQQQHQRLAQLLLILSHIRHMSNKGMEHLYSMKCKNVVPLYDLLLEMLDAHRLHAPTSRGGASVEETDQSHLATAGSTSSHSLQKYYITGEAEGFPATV
Experiment: OT_ERa_GFPERaERE_0120: Odyssey Thera (OT) 2-hour HeLa Transcription Induction Assay for Estrogen Receptor (AID 2283382)
Calls of active or inactive are those of the source. Rule for the calls: active = hit-call score of the fitted dose curve at least 0.9, where 1 is the maximum; inconclusive = response in the unintended direction; inactive = score below 0.9.
Please state which outcome applies, choosing from active, inactive

[
  {
    "compound": "CCCCC(CC)COC(=O)CC(C(=O)OCC(CC)CCCC)S(=O)(=O)O (configuration not stated)",
    "class_label": "active"
  },
  {
    "compound": "CCNc1cccc(C)c1",
    "class_label": "inactive"
  },
  {
    "compound": "FC(F)(F)C(F)(F)C(F)(F)C(F)(F)C(F)(F)C(F)(F)CCI",
    "class_label": "inactive"
  },
  {
    "compound": "NS(=O)(=O)c1cc2c(cc1Cl)NCNS2(=O)=O",
    "class_label": "inactive"
  }
]

Request: Which result was noted for this compound in the test: CCCc1cc(=O)[nH]c(=S)[nH]1
Response: inactive

Request: Also check CCCCCCCCCCC
Response: inactive

Request: Now the compound Cc1nc(-c2ccc3c(c2)CCN(CCC2CCC(NC(=O)/C=C/c4ccc(F)cc4)CC2)CC3)no1 (configuration not stated)
Response: inactive

###

Test: BSK_4H_Eotaxin3: BioMAP Diversity Plus: 4H Assay for Eotaxin 3 Biomarker Activity (AID 2283000);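 note: CCL26 protein level quantified by ELISA in parallel with SRB cytotoxicity check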
Details: primary human endothelial cells (HUVEC); actives raise or lower the signal
Calls of active or inactive are those of the source. How the source made its calls: active means hit-call score of the fitted dose curve at least 0.9, where 1 is the maximum; inactive means score below 0.9.
Respond using exactly one of the listed classes: active, inactive

See these solved cases before continuing.
[
  {
    "compound": "Nc1nc(N)c2nc(CNc3ccc(C(=O)N[C@@H](CCC(=O)O)C(=O)O)cc3)cnc2n1",
    "class_label": "inactive"
  },
  {
    "compound": "COc1cc(S(=O)(=O)O)c(C)cc1N=Nc1c(O)ccc2cc(S(=O)(=O)O)ccc12",
    "class_label": "inactive"
  },
  {
    "compound": "FC(F)(F)C(F)(F)C(F)(F)C(F)(F)C(F)(F)C(F)(F)CCI",
    "class_label": "inactive"
  },
  {
    "compound": "COCCOC[C@H](CC1(C(=O)NC2CCC(C(=O)O)CC2)CCCC1)C(=O)Oc1ccc2c(c1)CCC2 (stereo partly drawn)",
    "class_label": "inactive"
  },
  {
    "compound": "CCCCCCOCCO",
    "class_label": "inactive"
  }
]

Request: Status in this test for Cc1cccc(C)c1O ?
Response: inactive

Request: Continue with Cc1oc(-c2ccccc2)nc1CCOc1cccc2c1ccn2CCC(=O)O
Response: inactive

Request: Next record, please: C=CCOC(=O)c1ccccc1C(=O)OCC=C
Response: inactive

###

Read-out: Fatty Acid-Binding Protein 1 (FABP1), FABP1 (gene 2168)
Assay: LTEA_HepaRG_FABP1: Life Technologies and Expression Analysis (LTEA) Assay for Fatty Acid-Binding Protein 1 (FABP1) using HepaRG (AID 2283494)
Conditions: mRNA level, 48 h; actives raise or lower the signal
Active and inactive are the calls of the source. Rule for the calls: active = hit-call score of the fitted dose curve at least 0.9, where 1 is the maximum; inactive = score below 0.9.
Hello, when you answer, please use one of the following outcomes: active, inactive

[
  {
    "molecule": "Cc1cccc([N+](=O)[O-])c1C",
    "class_label": "inactive"
  },
  {
    "molecule": "COc1cc(C=O)ccc1O",
    "class_label": "inactive"
  },
  {
    "molecule": "COc1cc(-c2nc(NC(=O)c3cc4cc(C)cc(C)c4n3CC(=O)O)sc2CCC2CCCCC2)c(OC)cc1Cl",
    "class_label": "active"
  }
]

Request: Kindly provide the recorded test outcome for the following molecule: CCCCCCCCCCO
Response: inactive

###

Read-out: Monokine induced gamma interferon (MIG), CXCL9 (gene 4283)
Test: BSK_SAg_MIG: BioMAP Diversity Plus: SAg Assay for Monokine induced gamma interferon (MIG) Biomarker Activity (AID 2283092)
Details: primary human HUVEC with PBMC; actives raise or lower the signal
The source made the active and inactive calls. How the source made its calls: active means hit-call score of the fitted dose curve at least 0.9, where 1 is the maximum; inactive means score below 0.9.
Hi! Could you answer with just one of these? Y = active, N = inactive

For orientation, consider the following solved cases.
[
  {
    "molecule": "CCCCCCCCCCCCCO",
    "class_label": "N"
  },
  {
    "molecule": "O=[N+]([O-])C(CO)(CO)CO",
    "class_label": "N"
  },
  {
    "molecule": "COC(=O)c1ccc(O)cc1",
    "class_label": "N"
  }
]

Consider the additional compound presented here.
Request: For Nc1ccc2c(c1)C(=O)c1ccccc1C2=O , what call appears in the results of this test?
Response: N

###

Read-out: Pyruvate Dehydrogenase Kinase 4 (PDK4), PDK4 (gene 5166)
Assay: LTEA_HepaRG_PDK4: Life Technologies and Expression Analysis (LTEA) Assay for Pyruvate Dehydrogenase Kinase 4 (PDK4) using HepaRG (AID 2283525)
Details: mRNA level, 48 h; actives raise or lower the signal
Activity calls are given as the source filed them. The calls were made as follows: active = hit-call score of the fitted dose curve at least 0.9, where 1 is the maximum; inactive = score below 0.9.
In this exercise, the only acceptable responses are active, inactive

// known answers, use as guide
[
  {
    "molecule": "Cc1cccc(C)c1O",
    "class_label": "inactive"
  },
  {
    "molecule": "CCCCCCOCCO",
    "class_label": "inactive"
  },
  {
    "molecule": "Cc1oc(-c2ccccc2)nc1CCOc1cccc2c1ccn2CCC(=O)O",
    "class_label": "active"
  },
  {
    "molecule": "CNCc1cc(F)ccc1Oc1ccc(Cl)c(Cl)c1",
    "class_label": "inactive"
  }
]

Request: I would be grateful if you could indicate the recorded call for CCCCN(CCCC)CCCC .
Response: inactive

Request: Same question, CCOc1ccc2c(c1)C(C)=CC(C)(C)N2 this time
Response: inactive

Request: Then what about the molecule CCCCC(CC)COC(=O)CC(C(=O)OCC(CC)CCCC)S(=O)(=O)O (stereo unspecified) ?
Response: inactive

Request: Now try NCC1(Cc2noc(=O)[nH]2)CCCCC1 .
Response: inactive

Request: For CN1CCN(Cc2cc(-c3ccc4[nH]c(=O)oc4c3)co2)[C@@H](c2ccc(F)cc2)C1 then?
Response: active

Request: Same lookup for NCCO , please.
Response: inactive

Request: Continue with CN1CCCC1=O
Response: inactive

Request: # iterate: O=C(O)Cc1ccccc1Nc1c(Cl)cccc1Cl
Response: inactive
